measurement context: [M+H]+; instrument: TW; Major Mix IMS/Tof Calibration Kit (Waters)
quantity: collision cross section (N2) (Å²)

[
  {
    "compound": "Cc1cc(C(C)(C)C)cc(C)c1CC1=NCCN1",
    "quantity": "collision cross section (N2)",
    "value measured": 170.4
  },
  {
    "compound": "CC(=O)OC1CC[C@H]2[C@@H]3CC[C@H]4CC(=O)C=C(C)[C@]4(C)[C@H]3CC[C@]12C (some centres undefined) [Metenolone acetate]",
    "quantity": "collision cross section (N2)",
    "value measured": 187.6
  },
  {
    "compound": "CCC(c1ccccc1)c1c(O)c2ccccc2oc1=O (centres undefined)",
    "quantity": "collision cross section (N2)",
    "value measured": 160
  },
  {
    "compound": "Cc1cc2c(s1)Nc1ccccc1N=C2N1CCN(C)CC1",
    "quantity": "collision cross section (N2)",
    "value measured": 175.5
  },
  {
    "compound": "CCNC1(c2cccc(OC)c2)CCCCC1=O (centres undefined)",
    "quantity": "collision cross section (N2)",
    "value measured": 159.6
  },
  {
    "compound": "C=C[C@H]1C[N@@]2CC[C@H]1C[C@@H]2[C@@H](O)c1ccnc2ccc(OC)cc12",
    "quantity": "collision cross section (N2)",
    "value measured": 175.8
  },
  {
    "compound": "CN(C)CCc1c[nH]c2ccccc12",
    "quantity": "collision cross section (N2)",
    "value measured": 143.5
  },
  {
    "compound": "CCCCn1cc(C(=O)c2cccc3ccccc23)c2ccccc21",
    "quantity": "collision cross section (N2)",
    "value measured": 182.5
  },
  {
    "compound": "CN1CCN2c3ncccc3Cc3ccccc3C2C1 (centres undefined)",
    "quantity": "collision cross section (N2)",
    "value measured": 161
  }
]
